Data origin, for the record: the supplement of paper PMC10567573

Give protein stability index for every item shown.
B1: ATL3 (parent)
chain: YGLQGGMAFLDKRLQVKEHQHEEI

- Variants of: B1
- experimentSummary: protein stability index of a GFP-peptide fusion (GPS, HEK-293T) (PSI 1-6); higher = more stable;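 also: lentivirally expressed fusions sorted by FACS into six bins by GFP to DsRed ratio, PSI derived from sequencing read proportions per bin multiplied by bin number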
- runConditions: c terminus: a fixed tail appended
Give bare numbers.

Would you please look over these solved cases?
# residues, protein stability index
data = [
    ("YELQGGMAFLDKRLQVKEHQHEEI [G2E]", 3.28),
    ("YGLQGGMAFLDKRLQVKEHEHEEI [Q20E]", 2.5),
    ("YGTQGGMAFLDKRLQVKEHQHEEI [L3T]", 2.86),
    ("YGLQGGMAFLDKRLIVKEHQHEEI [Q15I]", 2.64),
    ("YGLQGGMAFLDKRNQVKEHQHEEI [L14N]", 1.77),
]

Would you be so kind as to report protein stability index for each listed record?
1. YGLQGGMAFLDKRLQVKEHQHEEH [I24H]
2. YGLQGGMAFLDKRLQVKEHQHEQI [E23Q]
3. YGLQGGMAFLDKRAQVKEHQHEEI [L14A]
4. YGLQGGMAFLTKRLQVKEHQHEEI [D11T]
5. YGLQGGMAFLDKRLQVKEHQHEEF [I24F]
6. YGLQGGMAFLDKRLQVKEHQHENI [E23N]
7. YGLQGGMAFLDKRLQVKEKQHEEI [H19K]
8. YGLQGGMAFLDKRLQVKEIQHEEI [H19I]

[3.42, 2.9, 3.51, 2.16, 4.03, 2.85, 2.25, 2.95]

Would you be so kind as to report protein stability index for each listed record?
1. YGLWGGMAFLDKRLQVKEHQHEEI [Q4W]
2. YGLQGGMAFFDKRLQVKEHQHEEI [L10F]
3. YFLQGGMAFLDKRLQVKEHQHEEI [G2F]
4. YGLQNGMAFLDKRLQVKEHQHEEI [G5N]
5. YGLQGIMAFLDKRLQVKEHQHEEI [G6I]
6. YGLQGRMAFLDKRLQVKEHQHEEI [G6R]
7. YGLQGGMAALDKRLQVKEHQHEEI [F9A]

2.66
2.03
2.31
2.44
2.54
2.85
4.3

Would you be so kind as to report protein stability index for each listed record?
1. YGLQGGMAFLDHRLQVKEHQHEEI [K12H]
2. YGLQGGMAFLDKRLQVKEHQHEET [I24T]

[2.03, 1.79]
